Metric name: melting point (°C)

A. O=C(N1CCCC1)n1oc(=O)c2c(F)cccc21
B. O=C(N1CCC1)n1oc(=O)c2ccccc21
Hi team, can someone confirm which has the larger melting point: A or B ? Thanks. Please identify the chosen entry by its label.
B
(B: 163 °C, A: 109 °C)

I. O=C(N1CCCC1)n1oc(=O)c2cc(Cl)ccc21
II. O=C(N1CCOCC1)n1oc(=O)c2cc(Cl)ccc21
Hi team, can someone confirm which has the larger melting point: I or II ? Thanks. Please identify the chosen entry by its label.
II

---

Metric name: melting point (°C)

O=C(N1CCOCC1)n1oc(=O)c2c(F)cccc21 : 141
O=C(N1CC2CCC2C1)n1oc(=O)c2ccc(Cl)cc21 (stereo not drawn) : 98
O=C(N1CCCC1)n1oc(=O)c2cc(F)c(F)cc21 : 133
